- Measurement description: in vivo
- Assay context: mouse, iv
Counter-ions that a name gives are not always drawn.
We begin with a simple list: items and their reported log10 of LD50.
Please note: log10 values; quantity LD50; unit mg/kg.

Past entries and their recorded results:
1. CN1CC2CN(C)CC(C1)C2OC(=O)c1ccc2ccccc2c1 (stereo not shown): 1.23
2. CCN1CC2CN(C)CC(C1)C2OC(=O)c1ccc(-c2ccccc2)cc1 (stereo not shown): 1.29
3. CN1CC2CN(C)CC(C1)C2OC(=O)C1c2ccccc2Oc2ccccc21 (stereo not shown): 1.15
4. CCN1CC2CN(C)CC(C1)C2Oc1ccc(Cl)cc1 (stereo not shown): 1.61
5. CN1CC2CN(C)CC(C1)C2Oc1ccc(Cl)cc1.O=C(O)/C=C/C(=O)O (stereo not shown): 1.72
6. CN1CC2CN(C)CC(C1)C2OC(c1ccccc1)c1ccccc1.O=C(O)/C=C/C(=O)O (stereo not shown): 1.32
7. CCCCN1CC2CN(CCCC)CC(C1)C2OC(=O)c1ccc(Cl)cc1 (stereo not shown): 0.70
8. CN1CC2CN(C)CC(C1)C2OC(=O)c1ccccc1 (stereo not shown): 0.95
9. CCN1CC2CN(CC)CC(C1)C2OC(=O)c1ccc(Cl)cc1.Cl.Cl.O (stereo not shown): 1.04
10. CCN1CC2CN(C)CC(C1)C2Oc1ccccc1Cl (stereo not shown): 1.45

Exercise: Entry under review: CCN1CC2CN(C)CC(C1)C2OC(=O)c1ccc(Cl)cc1Cl (stereo not shown) [dihydrochloride] . Reported log10 of LD50?
Solution: 1.30

Exercise: And for CCOc1ccc(C(=O)OC2C3CN(C)CC2CN(C)C3)cc1OC (stereo not shown) ?
Solution: 1.13

Exercise: Try the molecule CN1CC2CN(C)CC(C1)C2Oc1ccccc1.O=C(O)/C=C/C(=O)O (stereo not shown)
Solution: 1.59
